biological target: alpha 2B receptor (Homo sapiens); construct: expressed in transfected cells; host or cells: NIH-3T3; experiment: RSAT assay (Receptor Selection and Amplification Technology), Alpha 2B; format: cell-based; settings: RSAT; value in parentheses; ratio of maximal effect to that of brimonidine; Table 1
Sequence (P18089 whole entry): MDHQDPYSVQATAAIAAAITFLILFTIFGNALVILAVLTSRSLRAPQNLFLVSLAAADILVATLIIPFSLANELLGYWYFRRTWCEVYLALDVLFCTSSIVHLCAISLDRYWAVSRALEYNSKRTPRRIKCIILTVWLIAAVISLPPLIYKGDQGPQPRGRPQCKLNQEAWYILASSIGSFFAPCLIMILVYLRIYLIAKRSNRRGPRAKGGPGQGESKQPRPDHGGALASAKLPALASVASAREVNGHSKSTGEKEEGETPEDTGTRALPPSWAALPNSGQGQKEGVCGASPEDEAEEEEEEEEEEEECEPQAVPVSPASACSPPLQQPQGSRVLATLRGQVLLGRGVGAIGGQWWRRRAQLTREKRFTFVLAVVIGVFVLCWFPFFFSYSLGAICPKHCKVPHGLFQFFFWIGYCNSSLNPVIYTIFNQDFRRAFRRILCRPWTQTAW
MEASUREMENT TYPE: Intrinsic Activity efficacy Alpha 2B

> print(dat)
                                    compound  numeric.result
 1  Fc1cccc(C(Cc2ccncc2)/N=C2/NCCO2)c1 (stereo not shown)            0.98
 2  c1ccc(C(Cc2cnccn2)/N=C2/NCCS2)cc1 (stereo not shown)            0.97
 3  Cc1cccc(C(Cc2ccncc2)/N=C2/NCCS2)c1C (stereo not shown)             1.1
 4  Clc1cccc(C(Cc2ccncc2)/N=C2/NCCS2)c1Cl (stereo not shown)             1.1
 5  c1ccc(C(Cc2ccncc2)/N=C2/NCCS2)cc1 (stereo not shown)            1.18
 6  COc1ccccc1C(Cc1cccnc1)/N=C1/NCCO1 (stereo not shown)            0.62
 7    c1ccc([C@@H](Cc2ccncc2)/N=C2/NCCS2)cc1            0.64
 8    c1ccc([C@@H](Cc2ccncc2)/N=C2/NCCO2)cc1            1.16
 9  COc1ccccc1C(Cc1cccnc1)/N=C1/NCCS1 (stereo not shown)            0.78
10  Cc1cccc(C(Cc2cccnc2)/N=C2/NCCO2)c1C (stereo not shown)             1.2
11  Clc1cccc(C(Cc2ccncc2)N=C2NCCN2)c1Cl (stereo not shown)             1.3
12  Cc1cccc(C(Cc2ccncc2)/N=C2/NCCO2)c1C (stereo not shown)             1.1
13  Clc1cccc(C(Cc2ccncc2)/N=C2/NCCO2)c1Cl (stereo not shown)            1.15
